Value source: patent EP4729546A1

Here the recorded EC50 is given for each entry.
- System Name: huFXII-his (human) (UniProt P00748)
- Sequence (P00748 20-615, form in doubt): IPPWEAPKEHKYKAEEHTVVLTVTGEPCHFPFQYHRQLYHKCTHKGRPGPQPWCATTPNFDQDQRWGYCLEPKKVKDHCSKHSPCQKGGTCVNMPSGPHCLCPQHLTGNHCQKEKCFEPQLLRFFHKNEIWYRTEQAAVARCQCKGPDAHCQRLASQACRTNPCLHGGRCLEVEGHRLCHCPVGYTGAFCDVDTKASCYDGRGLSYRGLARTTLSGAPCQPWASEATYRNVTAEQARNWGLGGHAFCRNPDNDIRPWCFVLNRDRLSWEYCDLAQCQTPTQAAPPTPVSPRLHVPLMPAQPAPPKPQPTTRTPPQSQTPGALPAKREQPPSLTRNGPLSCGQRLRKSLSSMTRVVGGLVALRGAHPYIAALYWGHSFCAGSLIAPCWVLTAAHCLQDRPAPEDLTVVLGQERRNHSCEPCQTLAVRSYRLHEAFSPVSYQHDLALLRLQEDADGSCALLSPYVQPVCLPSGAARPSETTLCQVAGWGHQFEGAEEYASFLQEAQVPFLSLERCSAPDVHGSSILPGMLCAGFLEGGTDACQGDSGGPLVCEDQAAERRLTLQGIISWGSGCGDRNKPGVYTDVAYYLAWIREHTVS
- Experiment Summary: ELISA, huFXII-his coated at 1 µg/ml, HRP anti-human secondary, OD450
Write the number in µg/mL without appending the unit.

Consider the worked cases shown below.
EC50 lookup needed for FX-Y17-Y16 (antibody, V domains shown) VH: EVQLLESGGGLVQPGGSLRLSCAGSGFSFGSQTMSWVRQAPGKGLEWVSSISVISGRSYYADSVKGRFTISRDNSKNTLYLQMNSLRAEDTAVYYCAKSHAFDVWGQGTMVTVSS VL: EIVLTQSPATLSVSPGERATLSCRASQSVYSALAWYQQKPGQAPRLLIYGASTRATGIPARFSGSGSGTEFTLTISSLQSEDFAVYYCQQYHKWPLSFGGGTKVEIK , thanks.
0.125

What value of measured EC50 is listed for FX-Y17-Y10 (antibody, V domains shown) VH: EVQLLESGGGLVQPGGSLRLSCAGSGFSFGSQTMSWVRQAPGKGLEWVSSISVISGRAYYADSVKGRFTISRDNSKNTLYLQMNSLRAEDTAVYYCTKAHAFDVWGQGTMVTVSS VL: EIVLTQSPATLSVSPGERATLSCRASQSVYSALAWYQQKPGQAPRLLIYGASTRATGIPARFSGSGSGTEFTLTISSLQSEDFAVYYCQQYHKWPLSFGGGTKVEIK ?
0.161

Give the measured EC50 of FX-Y17-Y22 (antibody, V domains shown) VH: EVQLLESGGGLVQPGGSLRLSCAGSGFSFGSQTMSWVRQAPGKGLEWVSSISYISGRTYYADSVKGRFTISRDNSKNTLYLQMNSLRAEDTAVYYCTRSHAFDVWGQGTMVTVSS VL: EIVLTQSPATLSVSPGERATLSCRASQSVWSNLAWYQQKPGQAPRLLIYGASTRATGIPARFSGSGSGTEFTLTISSLQSEDFAVYYCQQYHKWPLSFGGGTKVEIK .
0.187

Which EC50 reading was recorded for the binder FX-Y17-Y37 (antibody, V domains shown) VH: EVQLLESGGGLVQPGGSLRLSCAGSGFSFGSQTMSWVRQAPGKGLEWVSSISVISGRSYYADSVKGRFTISRDNSKNTLYLQMNSLRAEDTAVYYCTKSHAFDVWGQGTMVTVSS VL: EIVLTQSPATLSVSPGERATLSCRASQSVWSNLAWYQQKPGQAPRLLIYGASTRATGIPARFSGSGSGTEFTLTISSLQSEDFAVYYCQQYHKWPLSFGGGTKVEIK ?
0.0629

---
Consider the binder shown here: FX-Y17-Y13 (antibody, V domains shown) VH: EVQLLESGGGLVQPGGSLRLSCAGSGFSFGSQTMSWVRQAPGKGLEWVSSISVISRRTYYADSVKGRFTISRDNSKNTLYLQMNSLRAEDTAVYYCTRSHAFDVWGQGTMVTVSS VL: EIVLTQSPATLSVSPGERATLSCRASQSVYSNLAWYQQKPGQAPRLLIYGASTRATGIPARFSGSGSGTEFTLTISSLQSEDFAVYYCQQYHKWPLSFGGGTKVEIK What is its recorded EC50?
0.128

Consider the binder FX-Y17-Y2 (antibody, V domains shown) VH: EVQLLESGGGLVQPGGSLRLSCAGSGFSFGSQTMSWVRQAPGKGLEWVSSISHISGRTYYADSVKGRFTISRDNSKNTLYLQMNSLRAEDTAVYYCTKSHAFDVWGQGTMVTVSS VL: EIVLTQSPATLSVSPGERATLSCRASQSVYSALAWYQQKPGQAPRLLIYGASTRATGIPARFSGSGSGTEFTLTISSLQSEDFAVYYCQQNNKWPLSFGGGTKVEIK and give its measured EC50.
0.164

Please give the measured EC50 for this binder: FX-Y17-Y1 (antibody, V domains shown) VH: EVQLLESGGGLVQPGGSLRLSCAGSGFSFGSQTMSWVRQAPGKGLEWVSSISVISRRTYYADSVKGRFTISRDNSKNTLYLQMNSLRAEDTAVYYCTKSHAFDVWGQGTMVTVSS VL: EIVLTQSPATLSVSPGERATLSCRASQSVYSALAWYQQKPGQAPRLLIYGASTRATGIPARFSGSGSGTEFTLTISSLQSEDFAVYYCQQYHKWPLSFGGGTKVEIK
0.151

Endpoint output: EC50 of FX-Y17-Y31 (antibody, V domains shown) VH: EVQLLESGGGLVQPGGSLRLSCAGSGFSFGSQTMSWVRQAPGKGLEWVSSISVISGRNYYADSVKGRFTISRDNSKNTLYLQMNSLRAEDTAVYYCAKSHAFDVWGQGTMVTVSS VL: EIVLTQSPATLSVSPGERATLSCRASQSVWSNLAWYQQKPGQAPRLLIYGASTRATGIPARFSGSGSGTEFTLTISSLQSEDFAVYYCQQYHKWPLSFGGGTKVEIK . Value?
0.117

Tell me the measured EC50 of FX-Y17-Y19 (antibody, V domains shown) VH: EVQLLESGGGLVQPGGSLRLSCAGSGFSFGSQTMSWVRQAPGKGLEWVSSISVISKRTYYADSVKGRFTISRDNSKNTLYLQMNSLRAEDTAVYYCTRSHAFDVWGQGTMVTVSS VL: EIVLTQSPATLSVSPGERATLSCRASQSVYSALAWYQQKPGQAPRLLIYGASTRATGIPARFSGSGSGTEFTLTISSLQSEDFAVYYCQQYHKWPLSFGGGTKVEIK , please.
0.149

I'd like to know its EC50. The binder in question is FX-Y17-Y40 (antibody, V domains shown) VH: EVQLLESGGGLVQPGGSLRLSCAGSGFSFGSQTMSWVRQAPGKGLEWVSSISVISGRTYYADSVKGRFTISRDNSKNTLYLQMNSLRAEDTAVYYCTKAHAFDVWGQGTMVTVSS VL: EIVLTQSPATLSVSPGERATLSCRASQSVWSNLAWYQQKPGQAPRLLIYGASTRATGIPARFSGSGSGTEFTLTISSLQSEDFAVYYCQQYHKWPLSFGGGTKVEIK
0.0781
